pIC50: −log10 of the molar value.
// note: pIC50 values for Arachidonate 12-lipoxygenase (Sus scrofa) were reported in different studies
Recorded metric: pIC50

Solved cases (3 shown):
[
  {
    "Compound": "O=C(Nc1ccc(Cl)cc1Cl)c1cn[nH]n1",
    "System tested": "Arachidonate 12-lipoxygenase (Sus scrofa)",
    "pIC50": 7.11
  },
  {
    "Compound": "O=C(O)CCc1ccc(COCC#CCCCCc2ccccc2)cc1",
    "System tested": "Arachidonate 12-lipoxygenase (Sus scrofa)",
    "pIC50": 5.30
  },
  {
    "Compound": "CCCCCCCCCC/C=C/COCc1ccc(CCC(=O)O)cc1",
    "System tested": "Arachidonate 12-lipoxygenase (Sus scrofa)",
    "pIC50": 7.40
  }
]

I = CCCCCCCCCCC#CCOCc1ccc(C(=O)O)cc1
II = CCCCCCCC#CCOCc1ccc(C(=O)O)cc1
III = CC1Cc2c(OCc3ccc(-c4ccccc4)cn3)ccc3c2c(c(CC(C)(C)Cc2nnn[nH]2)n3Cc2ccc(Cl)cc2)S1 (stereo not given)
Challenge: Ranking field: pIC50; order: falling. Show the ranking through the labels, in the order asked for.
Response given: I, III, II
